tested on: OVCAR-5 complex spheroids, viability; assay: Anticancer human tumor OVCAR-5 cell line growth inhibition; conditions: second compound 3.16 µM; first compound 0.01 µM; hits give low values;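 further: spheroids exposed to agents for seven days; 100% = DMSO vehicle control wells viability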
Endpoint name: viability, T/C (%)
Expressed in %, but write only the number.

| Molecule | Tested on | Experimental result |
| --- | --- | --- |
| CC(C)CC(NC(=O)C(Cc1ccccc1)NC(=O)c1cnccn1)B(O)O (centres undefined) + NC1CCC(NC2CC2c2ccccc2)CC1 | OVCAR-5 complex spheroids, viability | 39 |
| CC(C)CC(NC(=O)CNC(=O)c1cc(Cl)ccc1Cl)B1OC(=O)CC(CC(=O)O)(C(=O)O)O1 (centres undefined) + NC1CCC(NC2CC2c2ccccc2)CC1 | OVCAR-5 complex spheroids, viability | 76.5 |
| COc1cc(Nc2ncc3c(n2)-c2ccc(Cl)cc2C(c2c(F)cccc2OC)=NC3)ccc1C(=O)O + NC1CC1c1ccc(-c2cccc(O)c2)cc1 | OVCAR-5 complex spheroids, viability | 72 |

API: the following record is the query input.
Fill in the blank: the reported viability, T/C of O=C(C=Cn1cnc(-c2cc(C(F)(F)F)cc(C(F)(F)F)c2)n1)NNc1cnccn1 + NC1CCC(NC2CC2c2ccccc2)CC1 is ____. 88.1
